# assay-overview: Soluble concentration of nitroglycerin measured by HPLC
# condition-info: aqueous with cosolvent or surfactant or cyclodextrin, soluble concentration of nitroglycerin, in presence of 5% aqueous solution of Pluronic F127

| smiles-record | solubility |
| --- | --- |
| O=[N+]([O-])OCC(CO[N+](=O)[O-])O[N+](=O)[O-] | ~3800 µg/mL |

###

# assay-overview: Soluble concentration of nitroglycerin measured by HPLC
# condition-info: aqueous with cosolvent or surfactant or cyclodextrin, thermodynamic from solid, soluble concentration of nitroglycerin, in presence of 20% aqueous solution of PEG3350

| compound | solubility / µg/mL |
| --- | --- |
| O=[N+]([O-])OCC(CO[N+](=O)[O-])O[N+](=O)[O-] [nitroglycerin] | 2000 |

###

# assay-overview: physchem
# condition-info: aqueous with cosolvent or surfactant or cyclodextrin, thermodynamic from solid, final concentration of nitroglycerin (solubility limit)

| molecule | solubility |
| --- | --- |
| O=[N+]([O-])OCC(CO[N+](=O)[O-])O[N+](=O)[O-] [nitroglycerin] | ~1000 µg/mL |

###

# assay-overview: Soluble concentration of nitroglycerin measured by HPLC
# condition-info: aqueous with cosolvent or surfactant or cyclodextrin, soluble concentration of nitroglycerin, in presence of 5% aqueous solution of Tween 80
attribute-measured: solubility

| smiles-record | result |
| --- | --- |
| O=[N+]([O-])OCC(CO[N+](=O)[O-])O[N+](=O)[O-] | ~4.5 mg/mL |
